B1: library; numbered along this chain (parent)
chain: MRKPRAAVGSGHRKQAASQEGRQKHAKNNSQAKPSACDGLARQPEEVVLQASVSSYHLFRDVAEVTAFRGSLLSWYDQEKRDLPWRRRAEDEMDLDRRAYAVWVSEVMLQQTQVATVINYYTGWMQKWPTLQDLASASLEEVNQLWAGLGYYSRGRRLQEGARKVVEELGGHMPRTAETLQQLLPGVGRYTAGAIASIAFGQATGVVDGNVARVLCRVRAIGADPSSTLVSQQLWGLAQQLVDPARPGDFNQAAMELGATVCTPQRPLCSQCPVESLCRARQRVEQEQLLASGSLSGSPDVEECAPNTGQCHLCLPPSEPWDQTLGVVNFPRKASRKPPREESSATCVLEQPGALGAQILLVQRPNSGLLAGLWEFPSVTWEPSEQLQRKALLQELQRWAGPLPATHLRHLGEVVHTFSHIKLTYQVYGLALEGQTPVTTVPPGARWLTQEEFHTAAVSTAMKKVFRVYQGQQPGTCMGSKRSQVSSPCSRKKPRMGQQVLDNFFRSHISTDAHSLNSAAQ

Variants of: B1
test summary: 8OG:A repair function score (normalized; synonymous = 0, nonsense = -1) (normalized log-likelihood score); higher = more repair activity (WT-like);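 also: cells sorted at 72 h after reporter transfection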
condition parameters: with 8OG:A DNA repair reporter (GFP) in HEK-293 MUTYH KO cells
measurement name: 8OG:A repair function score
Please state the value as a number alone, without comment.

Examples with answers:
| change | measured number |
| --- | --- |
| Q271C | -0.0175 |
| V458Q | -0.711 |
| Q159A | -0.0252 |
| L315Y | 0.0406 |
| R398V | -0.2 |
| M496N | 0.00145 |

Give reported 8OG:A repair function score value for M173A -0.537

Note down 8OG:A repair function score recorded for P247Y -1.04

Find the measured 8OG:A repair function score of Q498H and report it. -0.0117

Using known records, supply 8OG:A repair function score for P383L -0.0053

Read off the recorded 8OG:A repair function score for E90D 0.000961

Give the value of 8OG:A repair function score reported for the following: W399S -0.232

// fetch 8OG:A repair function score given entry Q358E -0.0404
